testSystem: UniProt:P28845
Sequence (P28845 whole entry, looked up): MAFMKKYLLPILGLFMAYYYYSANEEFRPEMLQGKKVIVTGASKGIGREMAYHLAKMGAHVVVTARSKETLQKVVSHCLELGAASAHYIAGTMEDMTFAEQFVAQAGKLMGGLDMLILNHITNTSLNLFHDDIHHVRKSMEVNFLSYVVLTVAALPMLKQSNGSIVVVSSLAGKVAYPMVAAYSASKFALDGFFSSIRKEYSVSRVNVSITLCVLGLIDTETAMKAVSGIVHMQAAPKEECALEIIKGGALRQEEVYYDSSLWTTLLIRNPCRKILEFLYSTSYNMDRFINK
assay: Inhibition of human recombinant 11beta-HSD1 expressed in HEK293 cells assessed as residual conversion of [1,2-3H]-cortisone to cortisol at 0.2 uM by scintillation counting
Assay type: cell-based
observedProperty: Activity (%)

[Q] What Activity value was documented for this molecule, `CC1(C)[C@H](NS(=O)(=O)C(F)(F)F)CC[C@]2(C)[C@H]3C(=O)C=C4[C@@H]5C[C@@](C)(C(=O)O)CC[C@]5(C)CC[C@@]4(C)[C@]3(C)CC[C@@H]12` ?
[A] 99

[Q] So what's the measured Activity for this one? `CN(O)C(=O)[C@@]1(C)CC[C@]2(C)CC[C@]3(C)C(=CC(=O)[C@@H]4[C@@]5(C)CC[C@H](O)C(C)(C)[C@@H]5CC[C@]43C)[C@@H]2C1`
[A] 71

[Q] Suppose we examine the molecule `CC1(C)[C@@H](NS(=O)(=O)C(F)(F)F)CC[C@]2(C)[C@H]3C(=O)C=C4[C@@H]5C[C@@](C)(C(=O)O)CC[C@]5(C)CC[C@@]4(C)[C@]3(C)CC[C@@H]12` ; what Activity value has been reported?
[A] 87

[Q] Which Activity value is on record for `C=CCONC(=O)[C@@]1(C)CC[C@]2(C)CC[C@]3(C)C(=CC(=O)[C@@H]4[C@@]5(C)CC[C@H](OC(C)=O)C(C)(C)[C@@H]5CC[C@]43C)[C@@H]2C1` ?
[A] 99

[Q] Consider the molecule shown here: `CC(=O)O[C@H]1CC[C@]2(C)[C@H]3C(=O)C=C4[C@@H]5C[C@@](C)(C(=O)N(O)C(C)(C)C)CC[C@]5(C)CC[C@@]4(C)[C@]3(C)CC[C@H]2C1(C)C` What is its recorded Activity?
[A] 86
